# Tested on: male Wistar rats
# test summary: Sleep-wakefulness, locomotor activity and body temperature monitoring (SCORE-2000)
# Assay type: in vivo, rat
# setup conditions: 30 mg/kg PO at CT-18
Listed here: items and their measured Onset.
result type: Onset (min)

1) O=C(O)CN1CCC(C(c2ccccc2)c2ccccc2)CC1 [Compound 16a] | 180
2) O=C(O)CCN1CCC(=C2c3ccccc3COc3ccccc32)CC1 [Compound 8a] | 65
3) CC(C)COC(=O)CCN1CCC(=C(c2ccccc2)c2ccccc2)CC1 [Compound 11e] | 80
4) O=C(O)CCN1CCC(=C(c2ccccc2)c2ccccc2)CC1 [Compound 11a] | 85
5) O=C(O)CCCN1CCC(=C2c3ccccc3COc3ccccc32)CC1 [Compound 73a] | 45

---

# experimental target: human recombinant M1 muscarinic receptor expressed in CHO cells (Homo sapiens, UniProt P11229)
# Construct: expressed in transfected cells; host or cells: CHO cells
# Sequence (P11229 whole entry): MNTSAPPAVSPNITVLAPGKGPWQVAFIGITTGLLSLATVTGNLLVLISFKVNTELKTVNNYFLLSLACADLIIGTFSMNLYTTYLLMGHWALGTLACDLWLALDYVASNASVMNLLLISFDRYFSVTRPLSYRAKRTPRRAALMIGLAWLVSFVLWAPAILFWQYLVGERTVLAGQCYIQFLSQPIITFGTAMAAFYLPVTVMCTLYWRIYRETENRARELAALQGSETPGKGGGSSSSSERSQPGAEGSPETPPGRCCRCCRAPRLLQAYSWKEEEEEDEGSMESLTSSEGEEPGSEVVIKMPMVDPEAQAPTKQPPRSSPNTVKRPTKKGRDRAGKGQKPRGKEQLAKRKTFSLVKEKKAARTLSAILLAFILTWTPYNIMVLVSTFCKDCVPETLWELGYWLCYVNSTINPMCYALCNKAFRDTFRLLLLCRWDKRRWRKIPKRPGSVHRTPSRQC
# test summary: M1 binding assay (human recombinant), [3H]-scopolamine N-methyl chloride
# setup conditions: Table 7; human recombinant; read-out: Receptor Binding Data (Ki nM) M1
result type: Ki

1) O=C(O)CN1CCC(C(c2ccccc2)c2ccccc2)CC1 [Compound 16a] | > 10000 nM
